- Test system: SK-MEL-28 melanoma
- test: NCI tumour cell line growth inhibition, 48 h
assayMetric: TGI

# compound, result
measured = [
    ("CC1(C)CC(O)CC(C)(C)N1.CC1(C)CC(O)CC(C)(C)N1.CC1(C)CC(O)CC(C)(C)N1.CC1(C)CC(O)CC(C)(C)N1.Cl.[Ti]", "> 100 µM"),
]

Request: Give the measured TGI of CC1=C2CC(C)(C)CC(=O)C2(C)CCC1=O (centres undefined) .
Result: > 100 µM

Request: Give the measured TGI of `CN(c1ccc(NC(=O)NCCN2CCOCC2)cc1)c1ccnc(Nc2ccc(CS(C)(=O)=O)cc2)n1` .
Result: > 25 µM

Request: Give the measured TGI of CC1=NN(C(=O)c2ccc(C)cc2)C(=O)C1N=Nc1ccccc1C(=O)O (centres undefined) .
Result: > 100 µM

Request: Give the measured TGI of O=C1C2C(C(=O)N1CC[Se][Se]CCN1C(=O)C3C(C1=O)[C@H]1C=C[C@@H]3C1)[C@H]1C=C[C@@H]2C1 (some centres undefined) .
Result: 3.02 µM

----------
- Tested on: EKVX NSCLC
- test: NCI tumour cell line growth inhibition, 48 h
assayMetric: TGI (µM)
Please give a number only; it is taken to be in µM.

Some entries whose results are on file:
# molecule, TGI, µM
records = [
    ("CCCCCC(/C=C/[C@@H]1[C@@H](C(O)CCCCCC(=O)OC)C(=O)C[C@H]1O[Si](C)(C)C(C)(C)C)OCOCCOC (stereo not given in full)", 37.6),
    ("CCN(CC)C(=S)SSCCO", 39.7),
    ("O/N=C1\\CSc2ccccc2C1", 94.5),
]

Moving on to the next molecule.
Request: Give the measured TGI of `CCCCOc1ccc(S(=O)(=O)/N=C(\N)Nc2ccc(Cl)cc2)cc1` .
Result: 23.2

----------
- Tested on: TK-10 renal
- test: NCI tumour cell line growth inhibition, 48 h; in the data active means GI50 below about 0.43 µM; inactive means the rest
API: response.call in active, inactive

The following compounds have reported results that may help.
# compound, labelValue
data = [
    ("O=S(=O)(NCCCNc1nccc(-c2c(-c3cccc(F)c3)nc3occn23)n1)c1cccc2ccccc12", "inactive"),
    ("C=C(C)[C@@H]1CC[C@]2(C(=O)n3ccnc3)CC[C@]3(C)[C@H](CC[C@@H]4[C@@]5(C)CCCNC(C)(C)[C@@H]5CC[C@]43C)[C@@H]12", "inactive"),
    ("CCN(CC)C(=S)SSCCO", "inactive"),
    ("CC(=O)OC1COC(Oc2c(C)c3c4c(c2O)[C@@H](C)CC[C@@H]4[C@@H](C)C[C@H]3C=C(C)C)C(O)C1O (stereo partly drawn)", "inactive"),
]

Request: Lab log entry: `O=C1c2ccccc2-c2c1c1ccc([N+](=O)[O-])cc1c(=O)n2CCCCl` — outcome as called in the assay?
Result: inactive

Request: Lab log entry: `Nc1c(C(=O)Nc2ccccn2)sc2nc3c(cc12)CCCCCC3` — outcome as called in the assay?
Result: inactive

Request: Lab log entry: `CC1(C)CC(O)CC(C)(C)N1.CC1(C)CC(O)CC(C)(C)N1.CC1(C)CC(O)CC(C)(C)N1.CC1(C)CC(O)CC(C)(C)N1.Cl.[Ti]` — outcome as called in the assay?
Result: inactive

Request: Lab log entry: `CN(C)CCS(=O)(=O)Nc1cc(-c2ccc3ncnc(Nc4ccc(F)c(Cl)c4)c3c2)cnc1Cl` — outcome as called in the assay?
Result: active

----------
Readings of TGI for the listed compounds
- Tested on: HOP-62 NSCLC
- test: NCI tumour cell line growth inhibition, 48 h

# compound, experimentalSystem, result
records = [
    ("Cn1cc(NC(=O)c2cc(NC(=O)CCCCCCCC(=O)Nc3cc(C(=O)Nc4cc(C(=O)NCCC(=N)N)n(C)c4)n(C)c3)cn2C)cc1C(=O)NCCC(=N)N", "HOP-62 NSCLC", "> 100 µM"),
    ("CCCCCC(/C=C/[C@@H]1[C@@H](C(O)CCCCCC(=O)OC)C(=O)C[C@H]1O[Si](C)(C)C(C)(C)C)OCOCCOC (stereo partly drawn)", "HOP-62 NSCLC", "31.6 µM"),
    ("CC(C)(CC1(C)NC(=O)NC1=O)OCc1ccccc1 (stereo not drawn)", "HOP-62 NSCLC", "> 100 µM"),
    ("O=C(/C=C/c1cccs1)c1ccc([N+](=O)[O-])cc1", "HOP-62 NSCLC", "> 100 µM"),
]

Request: Give the measured TGI of `Nc1ccn([C@@H]2S[C@H](CO)[C@@H](O)[C@@H]2F)c(=O)n1` .
Result: > 74.3 µM

Request: Give the measured TGI of `O=S(=O)(Cc1ccccc1)SCc1ccccc1` .
Result: > 100 µM

Request: Give the measured TGI of O=c1[nH]c(=S)[nH]c2c(C3OC(CO)C(O)C3O)nsc12 (stereo not drawn) .
Result: > 100 µM

Request: Give the measured TGI of O=C1Nc2ccccc2C1S(=O)(=O)c1ccccc1 (stereo not drawn) .
Result: > 100 µM

Request: Give the measured TGI of `Cc1ccc(O)cc1Nc1ccnc2cc(-c3ccccn3)ccc12` .
Result: 8.59 µM

Request: Give the measured TGI of Fc1ccc(C(OCCN2CC3CC2CN3)c2ccc(F)cc2)cc1 (stereo not drawn) .
Result: > 100 µM

Request: Give the measured TGI of `Cc1cc(OC(=O)c2c(C)cc(OC(=O)c3c(C)cc(O)cc3O)cc2O)cc(O)c1C(=O)O` .
Result: > 100 µM

Request: Give the measured TGI of `CCCCOCCOCCOC1=C(Cl)C(=O)c2c(O)ccc(O)c2C1=O` .
Result: 2.53 µM

Request: Give the measured TGI of `Cc1ccc(NC(=O)c2ccc(NC3=C(Cl)C(=O)N(Cc4ccccc4)C3=O)cc2)cc1Cl` .
Result: 31.9 µM

Request: Give the measured TGI of `O=C1NC2=NN=C(c3ccc(Br)cc3)CN2NC12c1ccccc1-c1ccccc12` .
Result: > 100 µM

Request: Give the measured TGI of `COC(=O)c1ccc2c(c1)C(=O)c1c-2n(CCCCl)c(=O)c2cc(OC)c(OC)cc12` .
Result: > 100 µM

Request: Give the measured TGI of `CCN(CCNc1ccc(C)c2sc3cc(Cl)ccc3c(=O)c12)CC(C)(C)O` .
Result: 16.1 µM

Request: Give the measured TGI of `CO[C@]12C[C@@H](CNC(=O)c3cc(Br)c[nH]3)O[C@H]1NC(=O)N2` .
Result: > 100 µM

Request: Give the measured TGI of `CN1CCOCCOCCOc2ccccc2NC(=O)c2nc(cnc2N)-c2ccc(cc2)S1(=O)=O` .
Result: 46.2 µM

Request: Give the measured TGI of `CO/C(=N\N=C(/c1ccccc1)C(F)(F)F)c1ccncc1` .
Result: > 100 µM

Request: Give the measured TGI of `Nc1c(C(=O)Nc2ccccc2O)[n+]([O-])c2ccccc2[n+]1[O-]` .
Result: > 100 µM

----------
- System: SNB-78 CNS
- test: NCI tumour cell line growth inhibition, 48 h
Readings of TGI for the listed molecules

# molecule, assayMetric, result
records = [
    ("c1ccc2c(c1)[O][Sn][O]2", "TGI", "> 150 µg/mL"),
    ("Nc1nc(-c2ccccc2)cc(-c2cc(Cl)ccc2O)n1", "TGI", "> 100 µM"),
    ("CCOC(=O)COc1cccc2occc(=O)c12", "TGI", "> 100 µM"),
]

Request: State its TGI on SNB-78 CNS: O=C(NN1C(=O)C(Cl)C1c1c(O)ccc2ccccc12)c1ccccc1O (stereo unspecified)
Result: > 100 µM

Request: State its TGI on SNB-78 CNS: `O=C(O)C1=C(C(=O)O)Oc2ccccc2O1`
Result: > 100 µM

Request: State its TGI on SNB-78 CNS: `O=C(/C=C\c1ccc(/C=C/C(=O)Nc2cccc(C3=NCCCN3)c2)cc1)Nc1cccc(C2=NCCCN2)c1`
Result: > 100 µM

Request: State its TGI on SNB-78 CNS: O=c1[nH]c(=O)n(C2CC(O)C(O)C(CO)O2)cc1F (stereo unspecified)
Result: > 100 µM

Request: State its TGI on SNB-78 CNS: Cc1csc(CCC(N)C(=O)O)n1 (stereo unspecified)
Result: > 100 µM

Request: State its TGI on SNB-78 CNS: `Cc1cc(OC(=O)c2c(C)cc(OC(=O)c3c(C)cc(O)cc3O)cc2O)cc(O)c1C(=O)O`
Result: > 100 µM

Request: State its TGI on SNB-78 CNS: `Clc1ccc(-c2nnc(-c3nsc4ccccc34)o2)cc1`
Result: > 100 µM

Request: State its TGI on SNB-78 CNS: `O=C1c2ccoc2C(=O)c2oc(=O)ccc21`
Result: 42.8 µM

Request: State its TGI on SNB-78 CNS: Cc1c(C)c2ccc(OC(C)C(=O)O)cc2oc1=O (stereo unspecified)
Result: > 100 µM
